Tested on: Staphylococcus aureus
Test: Antimicrobial activity against Staphylococcus aureus RN4220
Type: functional
experimental.readout: MIC (µg/mL)

structure: CN(C)[C@@H]1C(O)=C(C(N)=O)C(=O)[C@@]2(O)C(O)=C3C(=O)c4c(O)cccc4[C@@](C)(O)[C@H]3C[C@@H]12
experimental.readout: MIC
unit.annotation: µg/mL
readout.value: 0.25

structure: CC1=C\[C@@H](O)CC(=O)Cc2nc(co2)C(=O)N2CCC=C2C(=O)O[C@H](C(C)C)[C@H](C)/C=C/C(=O)NC\C=C\1
experimental.readout: MIC
unit.annotation: µg/mL
readout.value: 4

structure: Cc1onc(-c2ccccc2)c1C(=O)N[C@@H]1C(=O)N2[C@@H]1SC(C)(C)[C@@H]2C(=O)O
experimental.readout: MIC
unit.annotation: µg/mL
readout.value: 0.06

structure: CS(=O)(=O)c1ccc([C@@H](O)[C@@H](CF)NC(=O)C(Cl)Cl)cc1
experimental.readout: MIC
unit.annotation: µg/mL
readout.value: 2

structure: O=C(N[C@H](CO)[C@H](O)c1ccc([N+](=O)[O-])cc1)C(Cl)Cl
experimental.readout: MIC
unit.annotation: µg/mL
readout.value: 4

structure: CC[C@H]1OC(=O)[C@H](C)[C@@H](O[C@H]2C[C@@](C)(OC)[C@@H](O)[C@H](C)O2)[C@H](C)[C@@H](O[C@@H]2O[C@H](C)C[C@H](N(C)C)[C@H]2O)[C@](C)(O)C[C@@H](C)C(=O)[C@H](C)[C@@H](O)[C@]1(C)O
experimental.readout: MIC
unit.annotation: µg/mL
readout.value: 0.25

structure: CCC[C@@H]1C[C@@H](C(=O)N[C@@H]([C@H]2O[C@H](SC)[C@H](O)[C@@H](O)[C@H]2O)[C@H](C)Cl)N(C)C1
experimental.readout: MIC
unit.annotation: µg/mL
readout.value: 0.125

structure: C=C[C@]1(C)C[C@@H](OC(=O)CSCCN(CC)CC)[C@]2(C)[C@H](C)CC[C@]3(CCC(=O)[C@H]32)[C@@H](C)[C@@H]1O
experimental.readout: MIC
unit.annotation: µg/mL
readout.value: 0.063

structure: CC(=O)NC[C@H]1CN(c2ccc(N3CCOCC3)c(F)c2)C(=O)O1
experimental.readout: MIC
unit.annotation: µg/mL
readout.value: 0.5
